system.tested: T1, IL-13RA2 huFc (human)
T1 construct: Expressed in 293F cells, purified on protein A; also called human IL13RA2; recombinant IL-13RA2
measurement.description: SPR (Biacore T200), nickel-purified scFv
pKd: −log10 of the molar value.
Label Not fulfilled if pKd falls below 8; label Fulfilled in every other case.

binder	class.name
5D7 (scFv) (scFv, also called clone 5D7) scFv: EVQLLESGGGLVQPGGSLRLSCAASGFTFSNYAMSWVRQAPGKGLEWVSGIRSSGGRTFYADSVKGRFTISRDNSKNTLYLQMNSLRAEDTAVYYCARVAFSGSFDYWGQGTLVTVSSGGGGSGGGGSGGGGSDIQMTQSPSTLSASVGDRVTITCRASQSISSWLAWYQQKPGKAPKLLIYDASSLESGVPSRFSGSGSGTEFTLTISSLQPDDFATYYCQQRNRYPPTFGQGTKVEIK	Fulfilled

**Q:** Is reported pKd greater than or equal to 8 here: 1B11 (scFv) (scFv, also called clone 1B11) scFv: EVQLLESGGGLVQPGGSLRLSCAASGFTFSRDALNWVRQAPGKGLEWVSAISGSGGSTFYADSVKGRFTISRDNSKNTLYLQMNSLRAEDTAVYYCAKVRYGWGAGAFDYWGQGTLVTVSSGGGGSGGGGSGGGGSDIQMTQSPSTLSASVGDRVTITCRASQSISSWLAWYQQKPGKAPKLLIYDASSLESGVPSRFSGSGSGTEFTLTISSLQPDDFATYYCQQYDTYPPITFGQGTKVEIK
**A:** Not fulfilled
